# ASSAYED SYSTEM: GABA-A receptor; alpha-5/beta-3/gamma-2 (Homo sapiens, UniProt P18507+P28472+P31644)
# ASSAY PROTOCOL: Displacement of [3H]flunitrazepam from human alpha5beta3gamma2 GABA receptor in Sf9 membranes after 1 hr by liquid scintillation counting
MEASURED ATTRIBUTE: pKi
Reminder that pKi means the negative base-10 logarithm of the concentration expressed in mol/L.

[
  {
    "LINE NOTATION": "Nc1c2c(nc3c(-c4cncnc4)cccc13)CN(C1CCC1)C2=O",
    "MEASURED ATTRIBUTE": "pKi",
    "REPORTED RESULT": 7.92
  }
]

We next turn to a different molecule, shown below.
Look up pKi for this molecule: `Nc1c2c(nc3c(-c4ncccn4)cccc13)CN(C1CCC1)C2=O`
7.85

----------
# reported pEC50; entries follow
# ASSAYED SYSTEM: GABA-A receptor; alpha-5/beta-3/gamma-2 (Homo sapiens, UniProt P18507+P28472+P31644)
# Sequence (P18507 whole entry): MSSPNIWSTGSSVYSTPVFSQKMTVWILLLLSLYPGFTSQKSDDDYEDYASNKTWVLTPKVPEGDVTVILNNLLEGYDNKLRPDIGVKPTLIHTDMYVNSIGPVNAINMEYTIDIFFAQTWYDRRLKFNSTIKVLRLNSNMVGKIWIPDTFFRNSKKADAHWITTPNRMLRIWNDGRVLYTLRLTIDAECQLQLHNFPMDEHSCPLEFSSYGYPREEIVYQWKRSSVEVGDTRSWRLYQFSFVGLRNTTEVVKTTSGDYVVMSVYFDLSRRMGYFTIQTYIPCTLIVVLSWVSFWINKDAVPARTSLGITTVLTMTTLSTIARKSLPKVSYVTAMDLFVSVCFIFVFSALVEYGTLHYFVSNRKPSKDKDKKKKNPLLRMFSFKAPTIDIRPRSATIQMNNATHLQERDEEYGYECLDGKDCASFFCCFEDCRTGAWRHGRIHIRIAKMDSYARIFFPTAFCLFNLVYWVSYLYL
# Sequence (P28472 whole entry): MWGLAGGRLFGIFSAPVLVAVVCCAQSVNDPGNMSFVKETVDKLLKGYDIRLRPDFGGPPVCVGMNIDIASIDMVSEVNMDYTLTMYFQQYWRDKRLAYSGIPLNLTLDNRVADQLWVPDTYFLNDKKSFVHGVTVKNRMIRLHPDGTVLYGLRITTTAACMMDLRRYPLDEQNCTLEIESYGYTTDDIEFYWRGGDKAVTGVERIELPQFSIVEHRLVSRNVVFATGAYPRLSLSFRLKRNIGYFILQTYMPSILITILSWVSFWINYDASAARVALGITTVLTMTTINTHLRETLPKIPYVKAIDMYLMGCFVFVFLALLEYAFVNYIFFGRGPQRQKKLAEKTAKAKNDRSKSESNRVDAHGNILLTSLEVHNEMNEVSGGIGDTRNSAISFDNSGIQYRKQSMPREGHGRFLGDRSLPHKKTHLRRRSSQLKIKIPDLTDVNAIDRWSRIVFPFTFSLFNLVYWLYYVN
# Sequence (P31644 whole entry): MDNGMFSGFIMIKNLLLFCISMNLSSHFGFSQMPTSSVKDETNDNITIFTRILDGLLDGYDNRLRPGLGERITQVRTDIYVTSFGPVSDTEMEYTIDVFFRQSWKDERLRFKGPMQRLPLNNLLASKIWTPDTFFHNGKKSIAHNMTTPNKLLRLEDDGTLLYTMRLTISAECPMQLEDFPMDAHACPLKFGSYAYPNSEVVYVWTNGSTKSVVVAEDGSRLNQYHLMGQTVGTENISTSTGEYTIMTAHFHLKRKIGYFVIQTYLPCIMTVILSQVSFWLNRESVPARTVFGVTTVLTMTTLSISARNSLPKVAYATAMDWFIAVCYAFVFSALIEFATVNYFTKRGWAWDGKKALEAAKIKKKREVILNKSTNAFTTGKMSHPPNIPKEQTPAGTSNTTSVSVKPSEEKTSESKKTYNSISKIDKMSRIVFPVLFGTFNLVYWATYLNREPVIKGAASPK
# ASSAY PROTOCOL: Binding affinity to human alpha5beta3gamma2 GABA receptor expressed in Xenopus laevis oocytes
# Assay type: cell-based, Oocyte
// pEC50 is dimensionless: -log10 of concentration (M)

[
  {
    "LINE NOTATION": "CCCNC(=O)c1nnc2c(-c3ncccn3)cccc2c1N",
    "ASSAYED SYSTEM": "GABA-A receptor; alpha-5/beta-3/gamma-2 (Homo sapiens, UniProt P18507+P28472+P31644)",
    "pEC50": 5.95
  },
  {
    "LINE NOTATION": "Nc1c2c(nc3c(-c4ncccn4)cccc13)CN(C1CCC1)C2=O",
    "ASSAYED SYSTEM": "GABA-A receptor; alpha-5/beta-3/gamma-2 (Homo sapiens, UniProt P18507+P28472+P31644)",
    "pEC50": 6.69
  },
  {
    "LINE NOTATION": "CCCNC(=O)c1nnc2c(-c3cncc(C(=O)N4CCC4)c3)cccc2c1N",
    "ASSAYED SYSTEM": "GABA-A receptor; alpha-5/beta-3/gamma-2 (Homo sapiens, UniProt P18507+P28472+P31644)",
    "pEC50": 6.34
  }
]

Continue with the molecule presented below.
Item `CCc1c(C(=O)OC)ncc2[nH]c3cc(OC)c(OC)cc3c12` with GABA-A receptor; alpha-5/beta-3/gamma-2 (Homo sapiens, UniProt P18507+P28472+P31644) - pEC50?
8.52

----------
# ASSAYED SYSTEM: GABA-A receptor; alpha-3/beta-3/gamma-2 (Homo sapiens, UniProt P18507+P28472+P34903)
# Sequence (P18507 whole entry): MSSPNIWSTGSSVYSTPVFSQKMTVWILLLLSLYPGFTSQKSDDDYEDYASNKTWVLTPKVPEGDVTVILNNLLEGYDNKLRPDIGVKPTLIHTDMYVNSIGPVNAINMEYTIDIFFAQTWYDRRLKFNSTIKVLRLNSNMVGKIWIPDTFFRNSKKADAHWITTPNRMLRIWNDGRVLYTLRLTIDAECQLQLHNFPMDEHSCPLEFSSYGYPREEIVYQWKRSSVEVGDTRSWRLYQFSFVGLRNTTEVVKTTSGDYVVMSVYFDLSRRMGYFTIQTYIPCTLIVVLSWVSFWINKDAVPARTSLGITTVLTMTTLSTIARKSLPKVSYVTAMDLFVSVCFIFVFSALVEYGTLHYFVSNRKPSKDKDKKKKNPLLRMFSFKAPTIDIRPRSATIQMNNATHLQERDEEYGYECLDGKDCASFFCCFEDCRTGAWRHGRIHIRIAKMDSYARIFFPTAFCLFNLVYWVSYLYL
# Sequence (P28472 whole entry): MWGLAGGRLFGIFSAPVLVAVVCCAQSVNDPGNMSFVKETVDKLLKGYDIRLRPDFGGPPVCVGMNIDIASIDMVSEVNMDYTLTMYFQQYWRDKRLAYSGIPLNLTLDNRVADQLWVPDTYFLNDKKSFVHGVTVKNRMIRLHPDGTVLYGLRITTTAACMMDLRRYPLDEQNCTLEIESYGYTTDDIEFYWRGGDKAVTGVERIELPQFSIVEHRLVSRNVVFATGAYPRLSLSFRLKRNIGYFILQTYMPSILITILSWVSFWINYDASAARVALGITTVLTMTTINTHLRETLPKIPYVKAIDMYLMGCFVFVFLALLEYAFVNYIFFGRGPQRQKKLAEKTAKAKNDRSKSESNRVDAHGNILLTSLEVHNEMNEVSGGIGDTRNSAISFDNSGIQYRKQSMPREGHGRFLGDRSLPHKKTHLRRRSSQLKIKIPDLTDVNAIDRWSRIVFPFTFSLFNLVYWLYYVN
# Sequence (P34903 whole entry): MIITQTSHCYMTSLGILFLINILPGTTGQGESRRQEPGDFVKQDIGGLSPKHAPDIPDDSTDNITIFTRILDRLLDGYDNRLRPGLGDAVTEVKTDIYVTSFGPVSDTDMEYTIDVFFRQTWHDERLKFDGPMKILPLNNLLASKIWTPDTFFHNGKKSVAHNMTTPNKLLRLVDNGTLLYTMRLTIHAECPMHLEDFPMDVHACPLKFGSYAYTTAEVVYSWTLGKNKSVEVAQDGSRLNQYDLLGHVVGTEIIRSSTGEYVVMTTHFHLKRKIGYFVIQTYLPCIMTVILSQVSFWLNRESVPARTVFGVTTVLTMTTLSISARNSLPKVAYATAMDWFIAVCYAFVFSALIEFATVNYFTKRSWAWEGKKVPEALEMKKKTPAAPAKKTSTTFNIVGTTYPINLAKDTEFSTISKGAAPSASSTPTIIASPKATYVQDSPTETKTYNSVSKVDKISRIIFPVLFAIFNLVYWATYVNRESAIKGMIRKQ
# ASSAY PROTOCOL: Binding affinity to human alpha3beta3gamma2 GABA receptor expressed in Xenopus laevis oocytes
MEASURED ATTRIBUTE: pEC50
Schema: pEC50 number; meaning minus log10 of the concentration expressed in molar units.

Here is how some compounds turned out for pEC50.
[
  {
    "LINE NOTATION": "CCCNC(=O)c1nnc2c(-c3ncccn3)cccc2c1N",
    "pEC50": 6.42
  },
  {
    "LINE NOTATION": "CCc1c(C(=O)OC)ncc2[nH]c3cc(OC)c(OC)cc3c12",
    "pEC50": 8.00
  },
  {
    "LINE NOTATION": "Nc1c2c(nc3c(-c4ncccn4)cccc13)CN(C1CCC1)C2=O",
    "pEC50": 7.11
  }
]

Now, please, on to the next compound.
Entry under review: `CCCNC(=O)c1nnc2c(-c3cncc(C(=O)N4CCC4)c3)cccc2c1N` . Reported pEC50?
6.76
